# System: CP185
# Experiment Description: qHTS profiling for inhibitors of Plasmodium falciparum proliferation (AID 504749); also: nearly all actives have a fitted effect of over 60% in size
# Test Context: P. falciparum in erythrocytes, SYBR Green DNA, 72 h; series mostly up to 28.7 µM
Inconclusive results are not listed. Calls of active or inactive are those of the source. Calls follow the shape of the dose curve; as a rule, active = well fitted inhibition curve with a large enough effect; inconclusive = small, poorly fitted or top-dose-only effect; inactive = flat fitted curve, though single readings scatter.
Log the outcome using a class from 1 (yes) = active, 0 (no) = inactive

# fetch the recorded call for CC(=O)OCC(=O)[C@@]1(O)CCC2C3CCC4=CC(=O)C=CC4(C)C3C(O)C[C@]21C (stereo partly specified) here
0 (no)

# fetch the recorded call for C[C@]12CC[C@@H]3c4ccc(O)cc4CC[C@H]3[C@@H]1CCC2OC(=O)CCC1CCCC1 (stereo partly specified) here
0 (no)

# fetch the recorded call for C=CCN1CC(C(=O)N(CCCN(C)C)C(=O)NCC)CC2c3cccc4[nH]cc(c34)CC21 (stereo unspecified) here
0 (no)

# fetch the recorded call for CNC(=O)C(N)CSC(C)C1=C(C)c2cc3[n-]c(cc4nc(cc5[n-]c(cc1n2)c(C)c5CCC(=O)O)C(CCC(=O)O)=C4C)c(C)c3C(C)SCC(N)C(=O)NC.[Fe+2] (stereo unspecified) here
0 (no)

# fetch the recorded call for C=C1[C@@H]2CC[C@H](C2)C1(C)C here
0 (no)

# fetch the recorded call for C/C=C\C[C@H](C)[C@H](O)[C@H]1C(=O)N[C@@H](CC)C(=O)N(C)CC(=O)N(C)[C@@H](CC(C)C)C(=O)N[C@@H](C(C)C)C(=O)N(C)[C@@H](CC(C)C)C(=O)N[C@@H](C)C(=O)N[C@@H](C)C(=O)N(C)[C@@H](CC(C)C)C(=O)N(C)[C@@H](CC(C)C)C(=O)N(C)[C@@H](C(C)C)C(=O)N1C here
1 (yes)

# fetch the recorded call for CO/N=C(/C(=O)N[C@@H]1C(=O)N2C(C(=O)O)=C(CSc3nnnn3C)CS[C@H]12)c1csc(N)n1 here
0 (no)

# fetch the recorded call for CC1(C)CC1C(=O)N/C(=C/CCCCSCC(N)C(=O)O)C(=O)O (stereo unspecified) here
0 (no)

# fetch the recorded call for CC1=C(C/C=C(\C)CCCC(C)CCCC(C)CCCC(C)C)C(=O)c2ccccc2C1=O (stereo unspecified) here
0 (no)

# fetch the recorded call for CC1=C[C@@H](O)CC(C)(C)[C@@H]1/C=C/C(C)=C/C=C/C(C)=C/C=C/C=C(C)/C=C/C=C(C)/C=C/C1=C(C)C[C@H](O)CC1(C)C here
0 (no)

# fetch the recorded call for CCC1OC(=O)C[C@@H](O)[C@H](C)[C@@H](OC2OC(C)CC(N(C)C)C2O)[C@@H](CC=O)C[C@@H](C)C(=O)/C=C/[C@]2(C)OC2C1C (stereo partly specified) here
1 (yes)

# fetch the recorded call for Clc1ccc(CS[C@@H](Cn2ccnc2)c2ccc(Cl)cc2Cl)cc1 here
1 (yes)

# fetch the recorded call for CN(C)CC/C=C1\c2ccccc2COc2ccc(CC(=O)O)cc21 here
0 (no)

# fetch the recorded call for CC1CCC(O)C/C1=C\C=C1/CCCC2(C)C1CCC2C(C)/C=C/C(C)C(C)C (stereo unspecified) here
0 (no)

# fetch the recorded call for Cc1cn([C@H]2CC(F)[C@@H](CO)O2)c(=O)[nH]c1=O (stereo partly specified) here
0 (no)

# fetch the recorded call for C=C(NCc1ccccc1)c1ccccc1O here
0 (no)
